Test system: SK-OV-3 ovarian
assay-remarks: NCI tumour cell line growth inhibition, 48 h

[
  {
    "molecule": "O=C1C(C(Nc2ccccc2)c2ccccc2)=C([O-])c2ccccc21.O=C1C(C(Nc2ccccc2)c2ccccc2)=C([O-])c2ccccc21.[Ni+2] (stereo not drawn)",
    "study-system": "SK-OV-3 ovarian",
    "GI50": "2.66 µM"
  },
  {
    "molecule": "COc1ccc2c3c([nH]c2c1)C(=O)c1nc(C)ccc1C3=O",
    "study-system": "SK-OV-3 ovarian",
    "GI50": "> 100 µM"
  },
  {
    "molecule": "COc1ccc2c(c1)C(=Nc1ccc(F)c(F)c1F)c1c-2c(Nc2ccc(F)c(F)c2F)nc2ccccc12",
    "study-system": "SK-OV-3 ovarian",
    "GI50": "16.3 µM"
  }
]
